tested on: OAW-42 (Ovarian Carcinoma); assay: combination Emax (second highest fraction inhibited in the dose matrix, 72 h); higher = more inhibition; extreme values may be limits of the assay
Here, each record is paired with measured combination Emax data.
measured-property: combination Emax

molecule | assayed-target | measured
COc1nnc2ccc(N3CCC(c4ccc(OCCN5CCN(C)C(=O)[C@H]5C)cc4)CC3)nn12 [AZD5153] + C[C@@H]1COCCN1C2=NC(=NC(=C2)C3(CC3)[S@](=N)(=O)C)C4=C5C=CNC5=NC=C4 [AZD6738] (first compound max 1 µM, 7x7, partner max 10 µM) | OAW-42 (Ovarian Carcinoma) | 0.702
C[C@@H](c1ccc2nccn2c1)n1nnc2ncc(-c3cnn(C)c3)nc21 [Savolitinib] + Cc1c2c(nn1C)CSCc1cc(n(C)n1)CSc1cc(c3ccccc3c1)OCCCc1c(C(=O)O)n(C)c3c-2c(Cl)ccc13 [AZD5991] (first compound max 1 µM, 7x7, partner max 1 µM) | OAW-42 (Ovarian Carcinoma) | 0.21
CS(=O)(=O)CCNCc1ccc(-c2ccc3ncnc(Nc4ccc(OCc5cccc(F)c5)c(Cl)c4)c3c2)o1 [Lapatinib] + C[C@@H](Oc1cc(-c2cnn(C3CCNCC3)c2)cnc1N)c1c(Cl)ccc(F)c1Cl [Crizotinib] (first compound max 10 µM, 7x7, partner max 10 µM) | OAW-42 (Ovarian Carcinoma) | 0.732
Cc1c2c(nn1C)CSCc1cc(n(C)n1)CSc1cc(c3ccccc3c1)OCCCc1c(C(=O)O)n(C)c3c-2c(Cl)ccc13 [AZD5991] + C=CCn1c(=O)c2cnc(Nc3ccc(N4CCN(C)CC4)cc3)nc2n1-c1cccc(C(C)(C)O)n1 [AZD1775] (first compound max 1 µM, partner max 1 µM) | OAW-42 (Ovarian Carcinoma) | 0.502

----------
test system: WM278 (Melanoma); test: combination Emax (second highest fraction inhibited in the dose matrix, 72 h); higher = more inhibition; extreme values may be limits of the assay

compound | combination Emax
CC1(C)CCC(CN2CCN(c3ccc(C(=O)NS(=O)(=O)c4ccc(NCC5CCOCC5)c([N+](=O)[O-])c4)c(Oc4cnc5[nH]ccc5c4)c3)CC2)=C(c2ccc(Cl)cc2)C1 [Venetoclax] + CCN(CCO)CCCOc1ccc2c(Nc3cc(CC(=O)Nc4cccc(F)c4)[nH]n3)ncnc2c1 [AZD2811] (first compound max 1 µM, 7x7, partner max 1 µM) | 0.337
COc1cccc(OCCCN)c1-c1cc(Nc2cnc(C#N)cn2)n[nH]1 [Prexasertib] + Cc1cc2ncnn2cc1Nc1ncc2c(n1)n(C1CCOCC1)c(=O)n2C [AZD7648] (first compound max 1 µM, 7x7, partner max 10 µM) | 0.596
CS(=O)(=O)CCNCc1ccc(-c2ccc3ncnc(Nc4ccc(OCc5cccc(F)c5)c(Cl)c4)c3c2)o1 [Lapatinib] + C[C@@H](Oc1cc(-c2cnn(C3CCNCC3)c2)cnc1N)c1c(Cl)ccc(F)c1Cl [Crizotinib] (first compound max 10 µM, 7x7, partner max 10 µM) | 0.768
NC1(C(=O)N[C@@H](CCO)c2ccc(Cl)cc2)CCN(c2ncnc3[nH]ccc23)CC1 [Capivasertib] + Cn1cnc2c(F)c(Nc3ccc(Br)cc3Cl)c(C(=O)NOCCO)cc21 [Selumetinib] (first compound max 10 µM, 7x7, partner max 10 µM) | 0.722
CN(CCO)CC[C@H](CSc1ccccc1)Nc1ccc(S(=O)(=O)NC(=O)c2ccc(N3CCC([C@@H](O)c4ccccc4-c4ccc(Cl)cc4)CC3)cc2)cc1S(=O)(=O)C(F)(F)F [AZD4320] + CCN(CCO)CCCOc1ccc2c(Nc3cc(CC(=O)Nc4cccc(F)c4)[nH]n3)ncnc2c1 [AZD2811] (first compound max 1 µM, 7x7, partner max 1 µM) | 0.635
